tested on: CHIKV; assay type: cell-based, chikungunya virus
quantity kind: Score_si2
API note: the answer field is a bare number with no unit suffix.

Examples with their reported Score_si2 follow.
{"substance": "s27235 (sense AGACCCACACTAAAGAATT; chemistry not given here) [reference compound]", "Score_si2": -0.6}
{"substance": "s17590 (CAACAGTTCTCAGACCAAA; chemistry not given here) [reference compound]", "Score_si2": -0.8}
{"substance": "Hs_LOC407835_4 (sense CAGGGAGATCAGCATCTGCAT; chemistry not given here)", "Score_si2": 0.79}
{"substance": "Hs_CRSP8_2 (sense TCGAACAATAGTAAAGGGATA; chemistry not given here) [reference compound]", "Score_si2": -1.08}
{"substance": "Hs_THRAP6_1 (sense ATGAAAGATTATTGTAATAAA; chemistry not given here) [reference compound]", "Score_si2": -1.47}

[ask] Test system CHIKV; read-out Score_si2; what value for s25186 (sense ACTTCTCCGTGATCCTGAA; chemistry not given here) ?
[reply] 1.53

[ask] Query s3145 (GACCCTTACCTGGAAGTTT; chemistry not given here) next
[reply] 0.19

[ask] Query s18705 (sense GCTCGTTACCTACATAGTA; chemistry not given here) [reference compound] next
[reply] -0.84

* * *

system: CHIKV; format: cell-based, chikungunya virus
quantity kind: Score_si3

{"substance": "Hs_F25965_2 (ACCAGCTTCGTTACTCAGAAA; chemistry not given here)", "value": 1.05}

[ask] Looking for the measured Score_si3 of s8541 (CAATCTCCGGAGGCACGAA; chemistry not given here) , can you help?
[reply] 0.12

[ask] Query Hs_DOK6_1 (TACGCCAAACCTGGATATTTA; chemistry not given here) [reference compound] next
[reply] -0.32

[ask] Query Hs_SAFB_1 (sense ACGGACTGTAGTAATGGATAA; chemistry not given here) next
[reply] 0.86

* * *

test system: CHIKV; experiment: microbe, parasite or virus in culture; assay type: cell-based, chikungunya virus; details: Chikungunya virus, HEK293; HEK-293 cells pretreated with dilutions of each drug, CHIKV-GFP, 18 h p.i.
Hi! Just check whether IC50 is below 300 nM. Below gives yes (1), equal or above gives no (0).

[ask] # strict comparison: is reported IC50 < 300 nM? input = O=C1Cc2c([nH]c3ccc([N+](=O)[O-])cc23)-c2ccccc2N1 [Alsterpaullone]
[reply] yes (1)

[ask] Query CCCCn1c2cc(OC)c(Cl)cc2c2ccnc(C)c21 [AnnH14] next
[reply] no (0)

[ask] Query Cc1ccc(Nc2nccc(N(C)c3ccc4c(C)n(C)nc4c3)n2)cc1S(N)(=O)=O [Pazopanib] next
[reply] yes (1)

[ask] Query CC(Cc1ccccc1)NCCC(c1ccccc1)c1ccccc1 (stereo not shown) [Prenylamine] next
[reply] no (0)

[ask] Query CCOC(=O)C1=C(C)NC(C)=C(C(=O)OC)C1c1cccc(Cl)c1Cl (stereo not shown) [Felodipine] next
[reply] no (0)

* * *

system: CHIKV; format: cell-based, chikungunya virus
Item-by-item account of Score_si2
API note: the answer field is a bare number with no unit suffix.

Examples with their reported Score_si2 follow.
{"substance": "Hs_ATF1_7 (CCAATAAATTCTAAATTACAA; chemistry not given here) [reference compound]", "Score_si2": -1.38}
{"substance": "s9326 (GGACTTAGTATAATGTGAA; chemistry not given here)", "Score_si2": 1}
{"substance": "s15686 (sense CCATCCACATGTACATCAA; chemistry not given here)", "Score_si2": 1.49}
{"substance": "Hs_FLJ31164_4 (sense GAGCAACTTGCTGGATGTGAA; chemistry not given here)", "Score_si2": 1.07}
{"substance": "s4917 (sense GTGTATGAGTTTAGAGTCA; chemistry not given here)", "Score_si2": 1.15}
{"substance": "Hs_NRCAM_3 (GACGTTTGGTTTAAAGAATTA; chemistry not given here)", "Score_si2": 0.93}

[ask] Looking for the measured Score_si2 of s6671 (sense CAACGAAAATCTAAATGCA; chemistry not given here) , can you help?
[reply] 0.2

[ask] Query Hs_ANKRD9_2 (CTCCCAGGAGCTAACGTATAA; chemistry not given here) next
[reply] 2.08
